# test-target: wild-type Aedes aegypti EcR (AaEcR; GAL4-EcR DEF with VP16-RXR-USP chimera) (Aedes aegypti)
# Sequence (P49880 with tags, fused parts or gaps limits assumed, change not shown): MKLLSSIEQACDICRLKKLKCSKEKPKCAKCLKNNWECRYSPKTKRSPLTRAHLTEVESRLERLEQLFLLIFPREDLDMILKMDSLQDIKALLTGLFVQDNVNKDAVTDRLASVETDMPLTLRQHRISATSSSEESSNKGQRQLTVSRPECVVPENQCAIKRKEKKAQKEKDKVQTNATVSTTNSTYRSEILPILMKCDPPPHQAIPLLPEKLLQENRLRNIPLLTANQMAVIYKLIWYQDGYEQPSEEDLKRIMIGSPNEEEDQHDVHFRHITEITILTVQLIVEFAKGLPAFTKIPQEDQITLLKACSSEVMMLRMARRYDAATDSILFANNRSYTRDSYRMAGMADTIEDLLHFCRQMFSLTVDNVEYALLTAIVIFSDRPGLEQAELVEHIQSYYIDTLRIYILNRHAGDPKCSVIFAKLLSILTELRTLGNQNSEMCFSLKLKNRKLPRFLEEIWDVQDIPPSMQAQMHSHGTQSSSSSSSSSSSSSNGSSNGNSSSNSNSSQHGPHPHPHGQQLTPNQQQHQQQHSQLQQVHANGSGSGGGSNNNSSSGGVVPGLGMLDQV
# protocol-description: Two-hybrid gene switch assay, luciferase reporter, wild-type AaEcR, mouse NIH3T3 cells
# Format: cell-based
# protocol-conditions: EC50, FIG. 14A/14B, GAL4-EcR(DEF) with VP16-RXR-USP chimera
pEC50: −log10 of the molar value.

- compound: "CC(C)(O)CC[C@@H](O)[C@](C)(O)[C@H]1CC[C@@]2(O)C3=CC(=O)[C@]4(O)C[C@@H](O)[C@@H](O)C[C@]4(C)[C@H]3CC[C@]12C"
  bound-type: "="
  pEC50: 6.76
- compound: "CC(C)(O)CC[C@@H](O)[C@](C)(O)[C@H]1CC[C@@]2(O)C3=CC(=O)[C@@H]4C[C@@H](O)[C@@H](O)C[C@]4(C)[C@H]3[C@H](O)C[C@]12C"
  bound-type: "="
  pEC50: 5.47
- compound: "CC(C)=CC[C@@H](O)[C@](C)(O)[C@H]1CC[C@@]2(O)C3=CC(=O)[C@@H]4C[C@@H](O)[C@@H](O)C[C@]4(C)[C@H]3CC[C@]12C"
  bound-type: "="
  pEC50: 7.36
- compound: "C=C(C)CC[C@@H](O)[C@](C)(O)[C@H]1CC[C@@]2(O)C3=CC(=O)[C@@H]4C[C@@H](O)[C@@H](O)C[C@]4(C)[C@H]3CC[C@]12C"
  bound-type: "="
  pEC50: 7.62
- compound: "CC(C)CC[C@@H](O)[C@](C)(O)[C@H]1CC[C@@]2(O)C3=CC(=O)[C@]4(O)C[C@@H](O)[C@@H](O)C[C@]4(C)[C@H]3[C@H](O)C[C@]12C [Mur A, muristerone A, reference compound]"
  bound-type: "="
  pEC50: 7.64
- compound: "CC(C)CC[C@@H](O)[C@](C)(O)[C@H]1CC[C@@]2(O)C3=CC(=O)[C@@H]4C[C@@H](O)[C@@H](O)C[C@]4(C)[C@H]3[C@H](O)C[C@]12C"
  bound-type: "="
  pEC50: 7.15
- compound: "CCCCCCCCCC(=O)OC1CC2(C)C(C(C)(O)C(O)CCC(C)(C)O)CCC2(O)C2=CC(=O)C3CC(O)C(O)CC3(C)C21 (stereo not shown) [turkesterone-11a-decanoate]"
  bound-type: "<"
  pEC50: 4.48
